We begin with a simple list: items and their reported recombinant UMI read abundance (log10).
assayInfo: recombinant UMI read abundance after kanamycin selection (control-corrected) (log10(CPM+1)); higher = more efficient recombination; extreme values may be limits of the assay; sequences stand for … in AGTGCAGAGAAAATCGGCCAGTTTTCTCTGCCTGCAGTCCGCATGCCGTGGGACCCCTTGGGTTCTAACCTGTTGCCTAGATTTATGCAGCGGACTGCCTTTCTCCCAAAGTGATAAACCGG…AGGTTGGTTTCACT; site = the 11-nt donor;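 note: IS621 bridge recombinase in Escherichia coli cells against a fixed T5 target plasmid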
Field format: numeric only.

Consider the reported recombinant UMI read abundance (log10) for these sequences:
orderedResidues: GAAGTGTCATGGACCGGTTTTCCCGGTAATCCGTATTTGAA (site GAAGTGTCTTT)
recombinant UMI read abundance (log10): 3.13

orderedResidues: ACAGATCCATGGACCGGTTTTCCCGGTAATCCGTATTTGAC (site ACATATCCTGT)
recombinant UMI read abundance (log10): 0.985

orderedResidues: CTACAAACATGGACCGGTTTTCCCGGTAATCCGTATTTGGA (site CTACTAACTTC)
recombinant UMI read abundance (log10): 0.313

orderedResidues: CTTTGCCCATGGACCGGTTTTCCCGGTAATCCGTATTTGCT (site CTTTGCCCTAG)
recombinant UMI read abundance (log10): 0.182

orderedResidues: CGATCTCCATGGACCGGTTTTCCCGGTAATCCGTATTTGCT (site CGATCTCCTAG)
recombinant UMI read abundance (log10): 0

QUERY: Returns the measured recombinant UMI read abundance (log10) for the input sequence. Input: CAGTCCACATGGACCGGTTTTCCCGGTAATCCGTATTTGGG (site CAGTCAACTCC)
RESULT: 0.00382

QUERY: And the next one, ACACGAACATGGACCGGTTTTCCCGGTAATCCGTATTTGTT (site ACACGAACTGA) ?
RESULT: 1.96

QUERY: And the next one, CTCCCCACATGGACCGGTTTTCCCGGTAATCCGTATTTGAG (site CTCCCAACTCT) ?
RESULT: 0.00953

QUERY: And the next one, AGGAACACATGGACCGGTTTTCCCGGTAATCCGTATTTGCA (site AGGAAGACTTG) ?
RESULT: 0

QUERY: And the next one, ACGATGACATGGACCGGTTTTCCCGGTAATCCGTATTTGCA (site AGGAAGACTTG) ?
RESULT: 0.907

QUERY: And the next one, GACAAACCATGGACCGGTTTTCCCGGTAATCCGTATTTGGA (site GACAAACCTTC) ?
RESULT: 0

QUERY: And the next one, GACCGACCATGGACCGGTTTTCCCGGTAATCCGTATTTGCG (site GACCGACCTCG) ?
RESULT: 0.00858

QUERY: And the next one, CTCCTCGCATGGACCGGTTTTCCCGGTAATCCGTATTTGAA (site CTCCTCGCTTT) ?
RESULT: 1.06

QUERY: And the next one, CCCTTCACATGGACCGGTTTTCCCGGTAATCCGTATTTGGG (site CCCTTCTCTCC) ?
RESULT: 0.0124

QUERY: And the next one, GTGGAGGCATGGACCGGTTTTCCCGGTAATCCGTATTTGTG (site GTGGTGGCTCA) ?
RESULT: 0

QUERY: And the next one, CCTAATACATGGACCGGTTTTCCCGGTAATCCGTATTTGGC (site CCTAAAACTGC) ?
RESULT: 0.00801

QUERY: And the next one, AGCTCAGCATGGACCGGTTTTCCCGGTAATCCGTATTTGGT (site AGCTCAGCTCC) ?
RESULT: 0.0126

QUERY: And the next one, ATTAGAACATGGACCGGTTTTCCCGGTAATCCGTATTTGAG (site AGTAGAACTCT) ?
RESULT: 0.286

QUERY: And the next one, CAATTCCCATGGACCGGTTTTCCCGGTAATCCGTATTTGCT (site CAATTCACTAG) ?
RESULT: 0

QUERY: And the next one, GTCGGGGCATGGACCGGTTTTCCCGGTAATCCGTATTTGGC (site GTCGGGGCTGC) ?
RESULT: 1.22

QUERY: And the next one, GGATCGACATGGACCGGTTTTCCCGGTAATCCGTATTTGTT (site CGATCGACTAA) ?
RESULT: 0.00751

QUERY: And the next one, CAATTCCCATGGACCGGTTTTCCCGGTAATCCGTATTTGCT (site CAATTCTCTAG) ?
RESULT: 2.13

QUERY: And the next one, CCTTGAACATGGACCGGTTTTCCCGGTAATCCGTATTTGCT (site CCTTGAACTAG) ?
RESULT: 0

QUERY: And the next one, TTGCCGGCATGGACCGGTTTTCCCGGTAATCCGTATTTGGC (site TGGCCGGCTGC) ?
RESULT: 0

QUERY: And the next one, CACGGCCCATGGACCGGTTTTCCCGGTAATCCGTATTTGTT (site CACGGCCCTAC) ?
RESULT: 0.017
